# TARGET_ENTITY: Sodium channel protein type 9 subunit alpha (Homo sapiens, UniProt Q15858)
# Sequence (Q15858 whole entry): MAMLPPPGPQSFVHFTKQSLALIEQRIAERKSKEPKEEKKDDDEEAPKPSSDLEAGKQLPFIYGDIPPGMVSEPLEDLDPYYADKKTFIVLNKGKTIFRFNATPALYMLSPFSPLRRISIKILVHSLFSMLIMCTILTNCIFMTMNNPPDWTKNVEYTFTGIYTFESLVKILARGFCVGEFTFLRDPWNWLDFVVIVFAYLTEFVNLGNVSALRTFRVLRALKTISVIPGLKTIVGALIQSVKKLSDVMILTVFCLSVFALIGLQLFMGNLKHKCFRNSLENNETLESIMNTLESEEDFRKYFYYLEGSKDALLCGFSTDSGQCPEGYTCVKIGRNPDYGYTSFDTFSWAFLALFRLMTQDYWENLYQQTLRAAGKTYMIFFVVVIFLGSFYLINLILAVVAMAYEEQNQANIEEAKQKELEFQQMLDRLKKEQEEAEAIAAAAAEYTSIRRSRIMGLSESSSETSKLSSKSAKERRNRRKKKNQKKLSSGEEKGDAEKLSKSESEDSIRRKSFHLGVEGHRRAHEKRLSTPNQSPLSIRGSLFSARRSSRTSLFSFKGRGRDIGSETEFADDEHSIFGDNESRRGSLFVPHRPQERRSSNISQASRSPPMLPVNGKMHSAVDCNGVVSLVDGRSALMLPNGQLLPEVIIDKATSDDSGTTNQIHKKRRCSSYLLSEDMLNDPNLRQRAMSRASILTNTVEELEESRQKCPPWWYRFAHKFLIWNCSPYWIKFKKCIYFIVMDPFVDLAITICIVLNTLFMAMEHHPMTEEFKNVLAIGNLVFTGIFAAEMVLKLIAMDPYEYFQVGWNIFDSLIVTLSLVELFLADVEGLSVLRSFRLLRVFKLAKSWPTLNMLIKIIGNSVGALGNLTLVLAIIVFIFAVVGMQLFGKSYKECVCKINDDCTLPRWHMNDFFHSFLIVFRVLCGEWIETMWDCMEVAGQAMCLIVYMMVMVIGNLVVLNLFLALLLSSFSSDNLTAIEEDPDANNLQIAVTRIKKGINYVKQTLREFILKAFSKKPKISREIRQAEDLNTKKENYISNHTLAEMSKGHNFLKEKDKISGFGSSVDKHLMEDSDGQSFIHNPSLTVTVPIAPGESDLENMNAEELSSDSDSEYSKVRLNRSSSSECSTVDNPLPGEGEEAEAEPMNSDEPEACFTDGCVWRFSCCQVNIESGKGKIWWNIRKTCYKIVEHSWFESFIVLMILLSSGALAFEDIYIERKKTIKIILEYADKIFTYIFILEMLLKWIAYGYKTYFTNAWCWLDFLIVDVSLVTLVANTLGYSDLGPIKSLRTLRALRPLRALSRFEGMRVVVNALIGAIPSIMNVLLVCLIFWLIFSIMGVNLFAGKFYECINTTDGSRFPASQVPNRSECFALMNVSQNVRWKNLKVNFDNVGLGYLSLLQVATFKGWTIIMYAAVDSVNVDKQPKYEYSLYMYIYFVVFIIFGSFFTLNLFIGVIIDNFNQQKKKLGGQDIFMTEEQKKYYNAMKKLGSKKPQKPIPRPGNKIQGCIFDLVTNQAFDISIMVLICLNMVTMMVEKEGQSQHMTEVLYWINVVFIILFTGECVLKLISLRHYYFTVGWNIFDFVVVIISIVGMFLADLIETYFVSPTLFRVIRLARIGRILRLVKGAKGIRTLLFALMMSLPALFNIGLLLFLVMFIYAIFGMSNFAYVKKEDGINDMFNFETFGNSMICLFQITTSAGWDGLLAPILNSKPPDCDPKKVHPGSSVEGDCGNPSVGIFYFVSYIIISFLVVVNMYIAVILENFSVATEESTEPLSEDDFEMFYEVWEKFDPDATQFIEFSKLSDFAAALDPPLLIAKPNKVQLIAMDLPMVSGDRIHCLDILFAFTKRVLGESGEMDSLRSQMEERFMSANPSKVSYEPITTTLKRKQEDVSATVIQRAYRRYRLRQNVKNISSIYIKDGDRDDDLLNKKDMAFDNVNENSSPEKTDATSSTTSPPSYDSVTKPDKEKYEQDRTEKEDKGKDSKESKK
# RUN_DESCRIPTION: Inhibition of human Nav1.7 by VIPR assay
pIC50: −log10 of the molar value.
Returns true (1) if the recorded pIC50 is greater than or equal to 7, and false (0) otherwise.

q: Check this molecule for pIC50 at or above 7: `NC(=O)c1cc(C(N)=O)n(-c2cccc(-c3cc(C(F)(F)F)ccc3C(F)(F)F)c2)n1`
a: false (0)

q: Check this molecule for pIC50 at or above 7: `NC(=O)c1cc(C(N)=O)n(-c2cccc(-c3cc(F)ccc3OCC(F)(F)C(F)(F)F)c2)n1`
a: true (1)

q: Check this molecule for pIC50 at or above 7: `CCOC(=O)c1cc(C(N)=O)nn1-c1cccc(-c2ccccc2OC(F)(F)F)c1`
a: true (1)

q: Check this molecule for pIC50 at or above 7: `CCNC(=O)c1cc(C(N)=O)nn1-c1cccc(-c2ccccc2OC(F)(F)F)c1`
a: true (1)

q: Check this molecule for pIC50 at or above 7: `NC(=O)c1cc(C(N)=O)n(-c2cccc(-c3c(C(F)(F)F)cccc3C(F)(F)F)c2)n1`
a: false (0)

q: Check this molecule for pIC50 at or above 7: `NC(=O)c1cc(C(N)=O)n(-c2cccc(-c3cccc(Cl)c3Cl)c2)n1`
a: false (0)

q: Check this molecule for pIC50 at or above 7: `NC(=O)c1cc(C(N)=O)n(-c2cccc(-c3cc(C(F)(F)F)ccc3OC(F)(F)F)c2)n1`
a: false (0)

q: Check this molecule for pIC50 at or above 7: `NC(=O)c1cc(C(N)=O)n(-c2ccc(F)c(-c3ccccc3OC(F)(F)F)c2)n1`
a: false (0)

q: Check this molecule for pIC50 at or above 7: `NC(=O)c1cn(-c2cccc(-c3ccccc3OC(F)(F)F)c2)nc1C(N)=O`
a: true (1)

q: Check this molecule for pIC50 at or above 7: `NC(=O)c1cc(C(N)=O)n(-c2cccc(-c3cccc(OC(F)(F)F)c3F)c2)n1`
a: false (0)

q: Check this molecule for pIC50 at or above 7: `Cc1c(C(N)=O)c(C(N)=O)nn1-c1cccc(-c2ccccc2OC(F)(F)F)c1`
a: false (0)

----------
# Tested on: Plasma
# RUN_DESCRIPTION: Plasma concentration in dog at 10 mg/kg, iv
# Type: ADME, organism-based, Canis lupus familiaris
# Set-up: dose 10 mg/kg, route intravenous
# CONDITIONS_USED: in vivo
PROPERTY_LABEL: concentration
Don't forget the unit after the number, please.

q: Return reported concentration; argument: `NC(=O)c1cc(C(N)=O)n(-c2cccc(-c3cc(C(F)(F)F)ccc3C(F)(F)F)c2)n1`
a: 78.2 µM

----------
# TARGET_ENTITY: UniProtKB P10635
# Sequence (P10635 whole entry): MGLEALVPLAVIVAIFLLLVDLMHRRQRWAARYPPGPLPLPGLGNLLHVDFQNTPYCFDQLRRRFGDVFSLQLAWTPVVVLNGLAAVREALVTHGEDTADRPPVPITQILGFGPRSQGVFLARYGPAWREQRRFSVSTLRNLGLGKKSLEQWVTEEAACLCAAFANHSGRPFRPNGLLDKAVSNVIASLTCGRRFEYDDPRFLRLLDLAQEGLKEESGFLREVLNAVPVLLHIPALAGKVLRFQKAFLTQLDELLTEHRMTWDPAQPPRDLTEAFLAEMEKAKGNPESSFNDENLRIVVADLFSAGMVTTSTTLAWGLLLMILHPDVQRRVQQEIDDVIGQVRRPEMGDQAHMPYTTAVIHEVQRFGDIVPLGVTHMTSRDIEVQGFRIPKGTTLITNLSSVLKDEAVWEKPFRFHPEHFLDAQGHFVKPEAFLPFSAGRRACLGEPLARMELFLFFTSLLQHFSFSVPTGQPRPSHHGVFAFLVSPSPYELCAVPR
pIC50: −log10 of the molar value.
PROPERTY_LABEL: pIC50

q: Return reported pIC50; argument: `NC(=O)c1cc(C(N)=O)n(-c2cccc(-c3cc(C(F)(F)F)ccc3C(F)(F)F)c2)n1`
a: < 4.00

----------
# TARGET_ENTITY: UniProt:P11712
# Sequence (P11712 whole entry): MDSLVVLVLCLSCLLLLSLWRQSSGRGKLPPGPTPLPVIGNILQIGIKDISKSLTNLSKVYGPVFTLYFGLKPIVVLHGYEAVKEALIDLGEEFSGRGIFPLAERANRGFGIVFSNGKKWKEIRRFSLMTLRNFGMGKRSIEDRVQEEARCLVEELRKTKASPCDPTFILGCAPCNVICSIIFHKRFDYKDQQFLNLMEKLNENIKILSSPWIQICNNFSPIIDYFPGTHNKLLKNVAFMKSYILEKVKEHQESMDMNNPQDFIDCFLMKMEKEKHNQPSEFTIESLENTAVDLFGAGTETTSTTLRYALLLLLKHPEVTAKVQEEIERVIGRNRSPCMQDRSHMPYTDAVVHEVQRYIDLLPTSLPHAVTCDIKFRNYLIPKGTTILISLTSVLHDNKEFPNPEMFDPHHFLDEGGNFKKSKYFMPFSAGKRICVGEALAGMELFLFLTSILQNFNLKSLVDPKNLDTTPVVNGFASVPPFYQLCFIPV
PROPERTY_LABEL: pIC50
Just the number, please; pIC50 means minus log10 of the concentration in mol/L.

q: Request - read-out pIC50 | tested on UniProt:P11712 | compound `NC(=O)c1cc(C(N)=O)n(-c2cccc(-c3cc(C(F)(F)F)ccc3C(F)(F)F)c2)n1`
a: 4.69
